B1: Caulobacter ParB omega fusion; a variant is named by its letters at X, in order, B8GW30 (parent)
chain: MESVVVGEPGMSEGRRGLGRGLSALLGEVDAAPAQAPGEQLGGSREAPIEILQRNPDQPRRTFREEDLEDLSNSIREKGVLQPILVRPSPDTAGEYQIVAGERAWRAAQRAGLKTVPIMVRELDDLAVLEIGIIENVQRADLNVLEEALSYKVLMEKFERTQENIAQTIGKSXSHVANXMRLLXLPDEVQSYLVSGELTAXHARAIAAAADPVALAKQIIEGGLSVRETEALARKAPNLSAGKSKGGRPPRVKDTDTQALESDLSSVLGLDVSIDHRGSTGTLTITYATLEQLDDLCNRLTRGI

# Variants of: B1
# assay.details: one-hybrid fitness for binding parS DNA (scaled: cognate 1, non-cognate 0); higher = stronger binding
# test.parameters: with parS DNA site
The full ranking holds about 81,000 sequences; the median of “one-hybrid fitness for binding parS DNA” is about -0.17, and the highest 2% start at about 0.51. This is one part of a sample in which the highest values are shown more often than they occur.
Item-by-item account of one-hybrid fitness for binding parS DNA
measure.name: one-hybrid fitness for binding parS DNA

> print(dat)
    variant.string  qual  numeric.result
 1            EPSR     ≤             0.2
 2            RAEM     =           0.246
 3            RREP     ≤             0.2
 4            RAER     ≤             0.2
 5            RVDP     ≤             0.2
 6            RECG     =           0.221
 7            DVVY     ≤             0.2
 8            RPAC     ≤             0.2
 9            RKRR     ≤             0.2
10            RKQT     =           0.729
11            DTKA     ≤             0.2
12            RETC     ≤             0.2
13            RQTD     =           0.217
14            RLYC     =            1.01
15            HFMV     ≤             0.2
16            PFMG     ≤             0.2
17            RKWM     =           0.254
18            RQTH     ≤             0.2
19            RTTC     =           0.991
20            RQTM     =           0.331
21            RKQH     ≤             0.2
22            RLDH     ≤             0.2
23            RKDT     =           0.832
24            WFGR     ≤             0.2
25            PLFM     ≤             0.2
26            RHEF     ≤             0.2
27            RERG     =           0.388
28            RMTP     ≤             0.2
29            RHEQ     =           0.223
30            RPCG     ≤             0.2
31            TEMT     ≤             0.2
32            RPRG     ≤             0.2
33            RIWQ     ≤             0.2
34            RHVR     ≤             0.2
35            MSES     ≤             0.2
36            RSAH     =           0.226
37            RHWC     =           0.759
38            RHDA     =           0.545
39            RREC     =           0.731
40            RSRG     =           0.965
41            RCYG     =            1.04
42            RVND     ≤             0.2
43            RIEY     =           0.338
44            RQTT     =           0.929
45            RIEC     =           0.791
46            RRWN     =           0.323
47            RQTG     =            1.01
48            RKDY     =            0.38
49            HYCT     ≤             0.2
50            RHNA     =           0.543
51            RDRG     ≤             0.2
52            RHEC     =           0.851
53            RLDS     =            1.01
54            RHKC     =           0.858
55            RMTC     =           0.985
56            RKWR     ≤             0.2
57            RHKM     =           0.358
58            RHYA     =           0.562
59            VFPY     ≤             0.2
60            RLYR     =            0.23
61            RKRQ     ≤             0.2
62            RHKQ     ≤             0.2
63            RKGT     =           0.764
64            RCAC     =            1.02
65            RQTK     ≤             0.2
66            RHPA     ≤             0.2
67            RKGQ     ≤             0.2
68            LMTS     ≤             0.2
69            RREH     ≤             0.2
70            RIWC     =           0.936
71            RVEG     =           0.813
72            RDYG     ≤             0.2
73            MEVG     ≤             0.2
74            RCCG     =            1.03
75            RVDS     =           0.974
76            RSAC     =           0.932
77            RQTC     =           0.966
78            RTWA     =           0.626
79            RLCM     =           0.342
80            RCRG     =           0.927
81            RLCG     =               1
82            THAA     ≤             0.2
83            RQTS     =           0.984
84            RGWA     =           0.282
85            RHWH     ≤             0.2
86            NTKA     ≤             0.2
87            REAC     ≤             0.2
88            RLDN     =           0.416
89            RNCM     ≤             0.2
90            VADN     ≤             0.2
91            RVNN     =           0.416
